Tested on: Streptococcus pyogenes SSI-9
Assay: Antibacterial activity assay of bead-derived peptides (three concentrations)
Assay type: cell-based
Set-up: key: +++: inhibition by the 640-fold diluted peptide solution; ++: inhibition by the 160-fold diluted solution; +: inhibition by the 40-fold diluted solution; -: no inhibition
Conditions: S. pyogenes, bead-derived peptide solution, three concentrations
Where a SMILES comes first, the peptide text is derived from it. [ ]: non-standard residue; d: D form. The star is where a group is joined. NHCH2CH2OH = OCCN*; For = O=C*
assay endpoint: antibacterial activity

Example results:
// antibacterial activity lookup, molecule = CNC(=O)C[C@@H](NC(=O)[C@H](Cc1c[nH]c2ccccc12)NC(=O)[C@H](NC(=O)[C@@H](NC(=O)[C@@H](CC(C)C)NC(=O)[C@H](C)NC(=O)[C@@H](CC(C)C)NC(=O)[C@H](C)NC(=O)CNC(=O)[C@@H](NC=O)C(C)C)C(C)C)C(C)C)C(=O)N[C@@H](Cc1c[nH]c2ccccc12)C(=O)N[C@@H](C(=O)N[C@@H](Cc1c[nH]c2ccccc12)C(=O)N[C@@H](C(=O)N[C@@H](Cc1c[nH]c2ccccc12)C(=O)NCCO)C(C)C)C(C)C [compound 5255] (For-VGA[dL]A[dL]V[dV]W[dD](NHMe)W[dV]W[dV]W-NHCH2CH2OH) , result: -

Entry CC(C)C[C@@H](NC(=O)[C@H](C)NC(=O)CNC(=O)[C@@H](NC=O)C(C)C)C(=O)N[C@@H](C)C(=O)N[C@@H](C(=O)N[C@H](C(=O)N[C@@H](C(=O)N[C@@H](Cc1c[nH]c2ccccc12)C(=O)N[C@@H](C(=O)N[C@@H](Cc1c[nH]c2ccccc12)C(=O)N[C@@H](C(=O)N[C@@H](Cc1c[nH]c2ccccc12)C(=O)N[C@@H](C(=O)N[C@@H](Cc1c[nH]c2ccccc12)C(=O)NCCO)C(C)C)C(C)C)C(C)C)C(C)C)C(C)C)C(C)C [compound 7516] (For-VGA[dL]A[dV]V[dV]W[dV]W[dV]W[dV]W-NHCH2CH2OH) — recorded antibacterial activity = +

Entry CC(C)C[C@@H](NC(=O)[C@H](C)NC(=O)CNC(=O)[C@@H](NC=O)C(C)C)C(=O)N[C@@H](C)C(=O)N[C@@H](C(=O)N[C@H](C(=O)N[C@@H](C(=O)N[C@@H](Cc1c[nH]c2ccccc12)C(=O)N[C@H](CC(C)C)C(=O)N[C@@H](Cc1c[nH]c2ccccc12)C(=O)N[C@@H](C(=O)N[C@@H](Cc1c[nH]c2ccccc12)C(=O)N[C@H](CC(C)C)C(=O)N[C@@H](Cc1c[nH]c2ccccc12)C(=O)NCCO)C(C)C)[C@H](C)O)C(C)C)C(C)C [compound 12185] (For-VGA[dL]A[dV]V[dT]W[dL]W[dV]W[dL]W-NHCH2CH2OH) , antibacterial activity reported as +

Sure, the documented antibacterial activity for CC(C)C[C@@H](NC(=O)[C@H](C)NC(=O)[C@H](NC(=O)[C@H](C)NC(=O)CNC(=O)[C@@H](NC=O)C(C)C)C(C)C)C(=O)N[C@H](C(=O)N[C@H](CC(C)C)C(=O)N[C@@H](Cc1c[nH]c2ccccc12)C(=O)N[C@@H](C(=O)N[C@@H](Cc1c[nH]c2ccccc12)C(=O)N[C@H](CC(C)C)C(=O)N[C@@H](Cc1c[nH]c2ccccc12)C(=O)N[C@@H](C(=O)N[C@@H](Cc1c[nH]c2ccccc12)C(=O)NCCO)C(C)C)[C@H](C)O)C(C)C [compound 4232] (For-VGA[dV]A[dL]V[dL]W[dT]W[dL]W[dV]W-NHCH2CH2OH) is -

Short answer for CNC(=O)C[C@@H](NC(=O)[C@H](Cc1c[nH]c2ccccc12)NC(=O)[C@H](NC(=O)[C@H](Cc1c[nH]c2ccccc12)NC(=O)[C@H](NC(=O)[C@H](Cc1c[nH]c2ccccc12)NC(=O)[C@@H](CC(C)C)NC(=O)[C@@H](NC(=O)[C@H](NC(=O)[C@H](C)NC(=O)[C@@H](CC(C)C)NC(=O)[C@H](C)NC(=O)CNC(=O)[C@@H](NC=O)C(C)C)C(C)C)C(C)C)C(C)C)C(C)C)C(=O)N[C@@H](Cc1c[nH]c2ccccc12)C(=O)NCCO [compound 8567] (For-VGA[dL]A[dV]V[dL]W[dV]W[dV]W[dD](NHMe)W-NHCH2CH2OH) : antibacterial activity was -

CC(C)C[C@@H](NC(=O)[C@H](C)NC(=O)[C@H](NC(=O)[C@H](C)NC(=O)CNC(=O)[C@@H](NC=O)C(C)C)[C@H](C)O)C(=O)N[C@H](C(=O)N[C@H](CC(C)C)C(=O)N[C@@H](Cc1c[nH]c2ccccc12)C(=O)N[C@@H](C(=O)N[C@@H](Cc1c[nH]c2ccccc12)C(=O)N[C@H](CC(C)C)C(=O)N[C@@H](Cc1c[nH]c2ccccc12)C(=O)N[C@H](CC(C)C)C(=O)N[C@@H](Cc1c[nH]c2ccccc12)C(=O)NCCO)[C@H](C)O)C(C)C [compound 5215] (For-VGA[dT]A[dL]V[dL]W[dT]W[dL]W[dL]W-NHCH2CH2OH) yielded antibacterial activity of -

For CC(C)C[C@@H](NC(=O)[C@H](C)NC(=O)[C@H](NC(=O)[C@H](C)NC(=O)CNC(=O)[C@@H](NC=O)C(C)C)[C@H](C)O)C(=O)N[C@H](C(=O)N[C@@H](C(=O)N[C@@H](Cc1c[nH]c2ccccc12)C(=O)N[C@@H](C(=O)N[C@@H](Cc1c[nH]c2ccccc12)C(=O)N[C@H](CC(C)C)C(=O)N[C@@H](Cc1c[nH]c2ccccc12)C(=O)N[C@H](CC(C)C)C(=O)N[C@@H](Cc1c[nH]c2ccccc12)C(=O)NCCO)C(C)C)C(C)C)C(C)C [compound 4652] (For-VGA[dT]A[dL]V[dV]W[dV]W[dL]W[dL]W-NHCH2CH2OH) the molecule record lists antibacterial activity as -

New cases:
Reported antibacterial activity for CC(C)C[C@@H](NC(=O)[C@H](C)NC(=O)[C@H](NC(=O)[C@H](C)NC(=O)CNC(=O)[C@@H](NC=O)C(C)C)C(C)C)C(=O)N[C@H](C(=O)N[C@H](CC(C)C)C(=O)N[C@@H](Cc1c[nH]c2ccccc12)C(=O)N[C@H](CC(C)C)C(=O)N[C@@H](Cc1c[nH]c2ccccc12)C(=O)N[C@H](CC(C)C)C(=O)N[C@@H](Cc1c[nH]c2ccccc12)C(=O)N[C@@H](C(=O)N[C@@H](Cc1c[nH]c2ccccc12)C(=O)NCCO)[C@H](C)O)C(C)C [compound 3365] (For-VGA[dV]A[dL]V[dL]W[dL]W[dL]W[dT]W-NHCH2CH2OH) was +

----------
Test system: Streptococcus pyogenes SSI-9
Test: Antibacterial activity assay of bead-derived peptides (three concentrations)
Type: cell-based
Design: key: +++: inhibition by the 640-fold diluted peptide solution; ++: inhibition by the 160-fold diluted solution; +: inhibition by the 40-fold diluted solution; -: no inhibition
Details: S. pyogenes, bead-derived peptide solution, three concentrations
Where a SMILES comes first, the peptide text is derived from it. [ ]: non-standard residue; d: D form. The star is where a group is joined. NHCH2CH2OH = OCCN*; For = O=C*
assay endpoint: antibacterial activity

Entry CC(C)C[C@@H](NC(=O)[C@H](C)NC(=O)[C@H](NC(=O)[C@H](C)NC(=O)CNC(=O)[C@@H](NC=O)C(C)C)[C@H](C)O)C(=O)N[C@H](C(=O)N[C@H](CC(C)C)C(=O)N[C@@H](Cc1c[nH]c2ccccc12)C(=O)N[C@@H](C(=O)N[C@@H](Cc1c[nH]c2ccccc12)C(=O)N[C@@H](C(=O)N[C@@H](Cc1c[nH]c2ccccc12)C(=O)N[C@@H](C(=O)N[C@@H](Cc1c[nH]c2ccccc12)C(=O)NCCO)C(C)C)C(C)C)[C@H](C)O)C(C)C [compound 2139] (For-VGA[dT]A[dL]V[dL]W[dT]W[dV]W[dV]W-NHCH2CH2OH) , antibacterial activity reported as -

----------
Test system: Streptococcus pyogenes SSI-9
Assay: Antibacterial activity assay of bead-derived peptides (three concentrations)
Type: cell-based
Parameters: key: +++: inhibition by the 640-fold diluted peptide solution; ++: inhibition by the 160-fold diluted solution; +: inhibition by the 40-fold diluted solution; -: no inhibition
Settings: S. pyogenes, bead-derived peptide solution, three concentrations
Where a SMILES comes first, the peptide text is derived from it. [ ]: non-standard residue; d: D form. The star is where a group is joined. NHCH2CH2OH = OCCN*; For = O=C*
assay endpoint: antibacterial activity

# antibacterial activity (compound: CC(C)C[C@@H](NC(=O)[C@H](C)NC(=O)CNC(=O)[C@@H](NC=O)C(C)C)C(=O)N[C@@H](C)C(=O)N[C@H](CC(C)C)C(=O)N[C@H](C(=O)N[C@@H](C(=O)N[C@@H](Cc1c[nH]c2ccccc12)C(=O)N[C@@H](C(=O)N[C@@H](Cc1c[nH]c2ccccc12)C(=O)N[C@@H](C(=O)N[C@@H](Cc1c[nH]c2ccccc12)C(=O)N[C@H](CC(C)C)C(=O)N[C@@H](Cc1c[nH]c2ccccc12)C(=O)NCCO)[C@H](C)O)C(C)C)C(C)C)C(C)C [compound 8498] (For-VGA[dL]A[dL]V[dV]W[dV]W[dT]W[dL]W-NHCH2CH2OH) ) is -

Reported antibacterial activity for CC(C)C[C@@H](NC(=O)[C@H](C)NC(=O)CNC(=O)[C@@H](NC=O)C(C)C)C(=O)N[C@@H](C)C(=O)N[C@H](CC(C)C)C(=O)N[C@H](C(=O)N[C@@H](C(=O)N[C@@H](Cc1c[nH]c2ccccc12)C(=O)N[C@H](CC(C)C)C(=O)N[C@@H](Cc1c[nH]c2ccccc12)C(=O)N[C@@H](C(=O)N[C@@H](Cc1c[nH]c2ccccc12)C(=O)N[C@@H](C(=O)N[C@@H](Cc1c[nH]c2ccccc12)C(=O)NCCO)C(C)C)C(C)C)C(C)C)C(C)C [compound 9607] (For-VGA[dL]A[dL]V[dV]W[dL]W[dV]W[dV]W-NHCH2CH2OH) was +

// antibacterial activity value for CC(C)C[C@@H](NC(=O)[C@H](C)NC(=O)CNC(=O)[C@@H](NC=O)C(C)C)C(=O)N[C@@H](C)C(=O)N[C@@H](C(=O)N[C@H](C(=O)N[C@H](CC(C)C)C(=O)N[C@@H](Cc1c[nH]c2ccccc12)C(=O)N[C@H](CC(C)C)C(=O)N[C@@H](Cc1c[nH]c2ccccc12)C(=O)N[C@@H](C(=O)N[C@@H](Cc1c[nH]c2ccccc12)C(=O)N[C@@H](C(=O)N[C@@H](Cc1c[nH]c2ccccc12)C(=O)NCCO)[C@H](C)O)C(C)C)C(C)C)[C@H](C)O [compound 113] (For-VGA[dL]A[dT]V[dL]W[dL]W[dV]W[dT]W-NHCH2CH2OH) : -

# antibacterial activity of CC(C)C[C@@H](NC(=O)[C@H](Cc1c[nH]c2ccccc12)NC(=O)[C@H](NC(=O)[C@H](Cc1c[nH]c2ccccc12)NC(=O)[C@H](NC(=O)[C@H](Cc1c[nH]c2ccccc12)NC(=O)[C@H](NC(=O)[C@@H](NC(=O)[C@H](NC(=O)[C@H](C)NC(=O)[C@H](NC(=O)[C@H](C)NC(=O)CNC(=O)[C@@H](NC=O)C(C)C)C(C)C)[C@H](C)O)C(C)C)C(C)C)C(C)C)C(C)C)C(=O)N[C@@H](Cc1c[nH]c2ccccc12)C(=O)NCCO [compound 5164] (For-VGA[dV]A[dT]V[dV]W[dV]W[dV]W[dL]W-NHCH2CH2OH) = -
